Data origin, for the record: paper PMC5700166

For each record, write down the corresponding binding signal.
Target: GST-Aq-NF-kB (Amphimedon queenslandica, UniProt A9Y5G7 2-389)
Sequence: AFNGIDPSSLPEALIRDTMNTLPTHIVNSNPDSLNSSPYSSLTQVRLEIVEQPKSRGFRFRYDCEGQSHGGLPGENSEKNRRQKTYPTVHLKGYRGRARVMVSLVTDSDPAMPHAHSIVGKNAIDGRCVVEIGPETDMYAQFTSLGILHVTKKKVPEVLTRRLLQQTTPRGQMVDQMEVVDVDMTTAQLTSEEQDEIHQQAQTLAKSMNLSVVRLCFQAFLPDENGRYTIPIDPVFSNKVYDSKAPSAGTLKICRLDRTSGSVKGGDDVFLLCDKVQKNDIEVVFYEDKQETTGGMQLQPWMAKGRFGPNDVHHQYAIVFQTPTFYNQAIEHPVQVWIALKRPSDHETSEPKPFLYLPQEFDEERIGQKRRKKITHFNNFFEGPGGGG
Assay: protein-binding microarray (PBM); PBM: ~300 nM protein, 6 mM HEPES pH 7.8, 80 mM KCl, 0.5 mM EDTA, 0.5 mM EGTA, 6% glycerol, 35 ng/ul poly-dIdC, 1% milk, 1 h, room temperature; Ap Aiptasia and Nv Nematostella (sea anemones) / Co Capsaspora / Aq Amphimedon (sponge) / Dm Drosophila / Hu human; RHD is the Rel homology domain; high values mean tight binding
Conditions: dsDNA, one strand shown
Numbers only, in z-score.

>>> recorded_result("CCGATTAACATCACCAAATCCCCTGATGTTAATCGGGTCTTGATTCGCTTGACGCTGCTG")
4.54
>>> recorded_result("CCGATTAACATCAAAATTCCCAGTGATGTTAATCGGGTCTTGATTCGCTTGACGCTGCTG")
4.23
>>> recorded_result("CCGATTAACATCACTAATCCCCCTGATGTTAATCGGGTCTTGATTCGCTTGACGCTGCTG")
4.99
>>> recorded_result("CCGATTAACATCAGGAGTTTCCATGATGTTAATCGGGTCTTGATTCGCTTGACGCTGCTG")
2.43
>>> recorded_result("CCGATTAACATCAGGGAATTCCATGATGTTAATCGGGTCTTGATTCGCTTGACGCTGCTG")
6.68
>>> recorded_result("CCGATTAACATCAAATATACCCCTGATGTTAATCGGGTCTTGATTCGCTTGACGCTGCTG")
4.15
>>> recorded_result("CCGATTAACATCAAAGAAGCCCCTGATGTTAATCGGGTCTTGATTCGCTTGACGCTGCTG")
5.13
>>> recorded_result("CCGATTAACATCACGGGGAATCCTGATGTTAATCGGGTCTTGATTCGCTTGACGCTGCTG")
7.48

Hi there! I need binding signal for each item below, if you can.
1. CCGATTAACATCAGAGCTCCCCCTGATGTTAATCGGGTCTTGATTCGCTTGACGCTGCTG
2. CCGATTAACATCAATTCCCAACATGATGTTAATCGGGTCTTGATTCGCTTGACGCTGCTG
3. CCGATTAACATCAAATTTCCCAATGATGTTAATCGGGTCTTGATTCGCTTGACGCTGCTG
4. CCGATTAACATCAGGGGGGGCAATGATGTTAATCGGGTCTTGATTCGCTTGACGCTGCTG

Ans.
1: 3.98; 2: 1.17; 3: 3.58; 4: 3.72

Hi there! I need binding signal for each item below, if you can.
1. CCGATTAACATCAGGGAGATCCCTGATGTTAATCGGGTCTTGATTCGCTTGACGCTGCTG
2. CCGATTAACATCAGGTACTTCCATGATGTTAATCGGGTCTTGATTCGCTTGACGCTGCTG

Ans.
8.85
2.23

Hi there! I need binding signal for each item below, if you can.
1. CCGATTAACATCAATTGGGAAAATGATGTTAATCGGGTCTTGATTCGCTTGACGCTGCTG
2. CCGATTAACATCACCCTCGAGGGTGATGTTAATCGGGTCTTGATTCGCTTGACGCTGCTG
3. CCGATTAACATCAAAATTCCCGCTGATGTTAATCGGGTCTTGATTCGCTTGACGCTGCTG
4. CCGATTAACATCACGGAACTTCCTGATGTTAATCGGGTCTTGATTCGCTTGACGCTGCTG
5. CCGATTAACATCAAAAATTCCACTGATGTTAATCGGGTCTTGATTCGCTTGACGCTGCTG

Ans.
1: 1.4; 2: 1.65; 3: 5.51; 4: 2.23; 5: 1.44

Hi there! I need binding signal for each item below, if you can.
1. CCGATTAACATCAAGCAATTCCCTGATGTTAATCGGGTCTTGATTCGCTTGACGCTGCTG
2. CCGATTAACATCAAAGCTTCCCCTGATGTTAATCGGGTCTTGATTCGCTTGACGCTGCTG
3. CCGATTAACATCAAATGCCCCCCTGATGTTAATCGGGTCTTGATTCGCTTGACGCTGCTG
4. CCGATTAACATCAGGAATTGCCCTGATGTTAATCGGGTCTTGATTCGCTTGACGCTGCTG
5. CCGATTAACATCAGGAAGTCCCCTGATGTTAATCGGGTCTTGATTCGCTTGACGCTGCTG

Ans.
1. 3.57
2. 4.64
3. 5.31
4. 4.94
5. 8.77

Hi there! I need binding signal for each item below, if you can.
1. CCGATTAACATCAGGGGGAAATATGATGTTAATCGGGTCTTGATTCGCTTGACGCTGCTG
2. CCGATTAACATCAAGGAATTTCCTGATGTTAATCGGGTCTTGATTCGCTTGACGCTGCTG

Ans.
1. 6.38
2. 4.35

Hi there! I need binding signal for each item below, if you can.
1. CCGATTAACATCAGGGGAGACAATGATGTTAATCGGGTCTTGATTCGCTTGACGCTGCTG
2. CCGATTAACATCAGGGAATTATATGATGTTAATCGGGTCTTGATTCGCTTGACGCTGCTG

Ans.
[2.2, 6.69]

Hi there! I need binding signal for each item below, if you can.
1. CCGATTAACATCAGGGAATTAAATGATGTTAATCGGGTCTTGATTCGCTTGACGCTGCTG
2. CCGATTAACATCACGGGAAATTCTGATGTTAATCGGGTCTTGATTCGCTTGACGCTGCTG

Ans.
[4.32, 6.47]

Hi there! I need binding signal for each item below, if you can.
1. CCGATTAACATCAAGGGGAATTATGATGTTAATCGGGTCTTGATTCGCTTGACGCTGCTG
2. CCGATTAACATCAAGAATTCCCGTGATGTTAATCGGGTCTTGATTCGCTTGACGCTGCTG
3. CCGATTAACATCAGGGGATTCCATGATGTTAATCGGGTCTTGATTCGCTTGACGCTGCTG
4. CCGATTAACATCAAAATACCCCGTGATGTTAATCGGGTCTTGATTCGCTTGACGCTGCTG
5. CCGATTAACATCAGGGGGTTTAATGATGTTAATCGGGTCTTGATTCGCTTGACGCTGCTG

Ans.
1. 7.24
2. 5.46
3. 6.89
4. 5.69
5. 5.24

Qu. Param item = `CCGATTAACATCACAAAACTCCCTGATGTTAATCGGGTCTTGATTCGCTTGACGCTGCTG` ; retrieve measured binding signal.
Ans. 6.32
